Attribute: growth inhibition
test: NCI Yeast Anticancer Drug Screen. Data for the cln2 rad14 strain (AID 165);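 further: 0% = growth equal to vehicle treated cultures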; conditions: S. cerevisiae cln2 rad14 strain, at 50.0 µM (retest, dose inferred, filed as 5.0), active compounds read high
The panel holds about 79,000 compounds, 15% with a hit somewhere; the sample as a whole holds those more often.
Respond numerically; units are % and should not be typed.

| compound | parameter | recorded_number |
| --- | --- | --- |
| CN(C)[C@@H]1C(=O)C(C(N)=O)=C(O)[C@@]2(O)C(=O)C3=C(O)c4c(O)cccc4C[C@H]3C[C@@H]12 | growth inhibition | 99 |
| CCCCOP(=O)(CCCP(=O)(OCCCC)OCCCC)OCCCC | growth inhibition | 38 |
| NC(=O)c1c([N+](=O)[O-])cc(C(F)(F)F)cc1[N+](=O)[O-] | growth inhibition | 22 |

Which growth inhibition reading was recorded for the compound Nc1n[n+]([O-])c2ccc(Cl)cc2[n+]1[O-] ?
93

====

test: NCI Yeast Anticancer Drug Screen. Data for the CLN2oe strain (AID 163);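 further: 0% = growth of vehicle-only control cultures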; conditions: S. cerevisiae CLN2oe strain, at 11.0 µM, active compounds read high
The panel holds about 79,000 compounds, 15% with a hit somewhere; the sample as a whole holds those more often.
Attribute: growth inhibition
Respond numerically; units are % and should not be typed.

| compound | growth inhibition / % |
| --- | --- |
| CN(C)CCNC(=O)c1cccc2cc([N+](=O)[O-])ccc12 | 43 |
| O=C1Nc2ccc(Br)cc2C1=Nc1ccc2c(c1)OCO2 | 16 |
| c1ccc(CCN2CCc3ccccc3C2)cc1 | 12 |
| COc1ccc(/C=C/c2sc3ccccc3[n+]2CCCCI)cc1OC | -8 |
| O=C(O)c1ccc(N2C(=O)C=CC2=O)cc1 | 6 |

Now consider the entry below.
Which growth inhibition reading was recorded for the compound Cc1cccc(/C=N/NC(=S)N2CCCC2)n1 ?
10

====

Experiment: NCI Yeast Anticancer Drug Screen. Data for the rad50EPP+ strain (AID 151);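 further: 0% = growth of vehicle-treated control cultures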
Settings: S. cerevisiae rad50 mutant strain, at 100.0 µM
Procedure: Growth inhibition of yeast strains with defined genetic alterations is measured as a screen for potential anti-cancer activity. Selected strains with alterations in DNA damage repair or cell cycle control were exposed to compounds and growth inhibition was measured relative to vehicle treated controls. The strain used in this assay is rad50EPP+
The panel holds about 79,000 compounds, 15% with a hit somewhere; the sample as a whole holds those more often. Calls of active or inactive are those of the source. Rule as the data show it: active = growth inhibition above about 70%; inactive = the rest.
Would you mind answering with one of these outcomes? class 1 for active, class 0 for inactive

Illustrative cases are given below, each with its answer.
| compound | label_value |
| --- | --- |
| CCCCCCCCCCCC1N=C(N)NC(CCCO)=C1C(=O)OC (stereo unspecified) | class 1 |
| Cc1ccc(NC(=O)/C(CC2N=c3c(ccc4c(O)c5ccccc5c(O)c34)=NC2O)=N/NC(C)(C)C)cc1 (stereo unspecified) | class 0 |
| Cc1nc2ccccc2nc1NNc1ccccc1 | class 1 |

Hello, I am checking results. What call was entered for CCCC(=O)Oc1ccc(/C=N/NC(N)=S)nc1 ?
class 0

Hello, I am checking results. What call was entered for COc1ccc2[nH]cc([C@@H]3C4CCC(C4)[C@H]3NCc3cccc(CN[C@H]4C5CCC(C5)[C@@H]4c4c[nH]c5ccc(OC)cc45)c3)c2c1 ?
class 0

Hello, I am checking results. What call was entered for N=C1N=Nc2nc(C3(c4nc5n(c4O)C(=N)N=N5)Cc4ccccc4C3=O)c(O)n21 (stereo unspecified) ?
class 0

Hello, I am checking results. What call was entered for COc1ccc(/C=C/c2sc3ccccc3[n+]2CCCCI)cc1OC ?
class 0

Hello, I am checking results. What call was entered for CC(=O)OC1CCC2(C)C(=CC(C3C=C4CC(OC(C)=O)CCC4(C)C4=C3C3CC5OC6(CCC(C)CO6)C(C)C5C3(C)CC4)C3=C2CCC2(C)C3CC3OC4(CCC(C)CO4)C(C)C32)C1 (stereo unspecified) ?
class 1

Hello, I am checking results. What call was entered for CC(=O)OCC(C)Cc1cc2c(cc1Br)OCO2 (stereo unspecified) ?
class 0

Hello, I am checking results. What call was entered for CCOC(=O)[C@H]1Nc2ccc(OC)cc2C2c3ccccc3CC21 (stereo partly specified) ?
class 0

Hello, I am checking results. What call was entered for O=C(NCCCl)Sc1ccc(Cl)cc1 ?
class 1
